target: Platelet-activating factor receptor (Oryctolagus cuniculus)
method.notes: In vitro inhibition of PAF induced aggregation of rabbit platelets.
measured.endpoint: pIC50
Scale: negative log10 of molar concentration, which is what pIC50 denotes.

Take a look at these entries with their results.
molecule="C=CCCCCCCOCCCCCCOC1CC(COC(=O)N(Cc2cccc[n+]2CC)C(C)=O)CO1 (stereo not given)" result=7.60
molecule="CC[n+]1ccccc1CN(C(C)=O)C(=O)OCC1COC(OCCCCCCOCc2ccc(-c3ccccc3)cc2)C1 (stereo not given)" result=7.82
molecule="CC[n+]1ccccc1CN(C(C)=O)C(=O)OCC1COC(OCCCCCCOCCCc2ccccc2)C1 (stereo not given)" result=7.29

What does the record list as pIC50 for CCOC1CC(COC(=O)N(Cc2cccc[n+]2CC)C(C)=O)CO1 (stereo not given) ?
5.55

Quick one: pIC50 of CC[n+]1ccccc1CN(C(C)=O)C(=O)OCC1COC(OCCCc2ccccc2)C1 (stereo not given) ?
6.72

For the molecule CC[n+]1ccccc1CN(C(C)=O)C(=O)OCC1COC(OCCC(c2ccccc2)c2ccccc2)C1 (stereo not given) , what pIC50 is on record?
6.59

What measured pIC50 goes with CCCCCCCCCCCCCCCCOC1CC(COC(=O)N(Cc2cccc[n+]2CC)C(C)=O)CO1 (stereo not given) ?
8.01

// pIC50 lookup, key: CCCCCCCCCCCCCCCCCCCCOC1CC(COC(=O)N(Cc2cccc[n+]2CC)C(C)=O)CO1 (stereo not given)
7.40

Please give the measured pIC50 for this molecule: CC[n+]1ccccc1CN(C(C)=O)C(=O)OCC1COC(OCCCCCCCCCCCCCCCCOC)C1 (stereo not given)
8.68

Value lookup for pIC50; key = CC[n+]1ccccc1CN(C(C)=O)C(=O)OCC1COC(OCCCCCCOCCCCCc2ccccc2)C1 (stereo not given)
7.82
